Below: a set of entries, each annotated with reported viability, T/C.
- Tested on: 922993-354-T-J3-PDC complex spheroid viability
- assayProtocol: Anticancer human tumor 922993-354-T-J3-PDC patient-derived endometrial carcinoma cell line growth inhibition [POLQ]
- testSettings: second compound 3.16 µM; first compound 1 µM; hits give low values

Please review the following examples before continuing.
{"columns": ["compound", "viability, T/C"],
 "data": [
  ["C=CCn1c(=O)c2cnc(Nc3ccc(N4CCN(C)CC4)cc3)nc2n1-c1cccc(C(C)(C)O)n1 + Cc1cccc(N(C)C(=O)C2C(O)CCN2c2nc(C)cc(C(F)(F)F)c2C#N)c1", "99%"],
  ["CC1COCCN1c1cc(C2(O)CC3CCC(C2)O3)c2cnn(-c3ccn[nH]3)c2n1 (stereo not given) + Cc1cccc(N(C)C(=O)C2C(O)CCN2c2nc(C)cc(C(F)(F)F)c2C#N)c1", "20.7%"],
  ["CCCS(=O)(=O)Nc1ccc(F)c(C(=O)c2c[nH]c3ncc(-c4ccc(Cl)cc4)cc23)c1F + Nc1ccc(C#CCN(C(=O)Cc2ncc(C(F)(F)F)cc2C(F)(F)F)c2ccc(F)cc2)nn1", "101%"],
  ["COc1cccc(OCCCN)c1-c1cc(Nc2cnc(C#N)cn2)n[nH]1 + Cc1cccc(N(C)C(=O)C2C(O)CCN2c2nc(C)cc(C(F)(F)F)c2C#N)c1", "10.7%"]
]}

stdin: Enter reported viability, T/C observed with 922993-354-T-J3-PDC complex spheroid viability for CC1COCCN1c1cc(C2(S(C)(=N)=O)CC2)nc(-c2ccnc3[nH]ccc23)n1 (stereo not given) + Nc1ccc(C#CCN(C(=O)Cc2ncc(C(F)(F)F)cc2C(F)(F)F)c2ccc(F)cc2)nn1
stdout: 95.5%

====

- System: 922993-354-T-J3-PDC complex spheroid viability
- assayProtocol: Anticancer human tumor 922993-354-T-J3-PDC cell line growth inhibition [POLQ];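 note: spheroids exposed to the agents for one week; 100% = DMSO vehicle control wells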
- testSettings: second compound 0.316 µM; first compound 0.0316 µM; hits give low values
outcomeMeasure: viability, T/C (%)
The response must be a number in % with no trailing unit.

{"columns": ["compound", "measuredOn", "viability, T/C (%)"],
 "data": [
  ["C=CC(=O)N1CCN(c2nc(=O)n(-c3c(C)ccnc3C(C)C)c3nc(-c4c(O)cccc4F)c(F)cc23)C(C)C1 (stereo unspecified) + COC1C(OC(N)=O)C(O)C(Oc2ccc3c(O)c(NC(=O)c4ccc(O)c(CC=C(C)C)c4)c(=O)oc3c2C)OC1(C)C", "922993-354-T-J3-PDC complex spheroid viability", 102],
  ["Nc1ccn(C2OC(CO)C(O)C2(F)F)c(=O)n1 (stereo unspecified) + Cc1cccc(N(C)C(=O)C2C(O)CCN2c2nc(C)cc(C(F)(F)F)c2C#N)c1", "922993-354-T-J3-PDC complex spheroid viability", 11.9],
  ["CC(C)n1c(=O)n(C)c2cnc3cc(F)c(-c4ccc(OCCCN5CCCCC5)nc4)cc3c21 + Cc1cccc(N(C)C(=O)C2C(O)CCN2c2nc(C)cc(C(F)(F)F)c2C#N)c1", "922993-354-T-J3-PDC complex spheroid viability", 114],
  ["CC[C@@]1(O)C(=O)OCc2c1cc1n(c2=O)Cc2cc3c(CN(C)C)c(O)ccc3nc2-1 + Nc1ccc(C#CCN(C(=O)Cc2ncc(C(F)(F)F)cc2C(F)(F)F)c2ccc(F)cc2)nn1", "922993-354-T-J3-PDC complex spheroid viability", 103],
  ["CC1COCCN1c1cc(C2(S(C)(=N)=O)CC2)nc(-c2ccnc3[nH]ccc23)n1 (stereo unspecified) + Cc1cccc(N(C)C(=O)C2C(O)CCN2c2nc(C)cc(C(F)(F)F)c2C#N)c1", "922993-354-T-J3-PDC complex spheroid viability", 102],
  ["CCc1c2c(nc3ccc(O)cc13)-c1cc3c(c(=O)n1C2)COC(=O)[C@]3(O)CC + Cc1cccc(N(C)C(=O)C2C(O)CCN2c2nc(C)cc(C(F)(F)F)c2C#N)c1", "922993-354-T-J3-PDC complex spheroid viability", 19.7],
  ["CC1COCCN1c1cc(C2(S(C)(=N)=O)CC2)nc(-c2ccnc3[nH]ccc23)n1 (stereo unspecified) + COC1C(OC(N)=O)C(O)C(Oc2ccc3c(O)c(NC(=O)c4ccc(O)c(CC=C(C)C)c4)c(=O)oc3c2C)OC1(C)C", "922993-354-T-J3-PDC complex spheroid viability", 81.1],
  ["CC1COCCN1c1cc(-c2ccnn2C)c2ccnc(-c3ccn[nH]3)c2n1 (stereo unspecified) + Nc1ccc(C#CCN(C(=O)Cc2ncc(C(F)(F)F)cc2C(F)(F)F)c2ccc(F)cc2)nn1", "922993-354-T-J3-PDC complex spheroid viability", 104],
  ["O=C(c1cc(Cc2n[nH]c(=O)c3ccccc23)ccc1F)N1CCN(C(=O)C2CC2)CC1 + Nc1ccc(C#CCN(C(=O)Cc2ncc(C(F)(F)F)cc2C(F)(F)F)c2ccc(F)cc2)nn1", "922993-354-T-J3-PDC complex spheroid viability", 104],
  ["CNCc1ccc(-c2[nH]c3cc(F)cc4c3c2CCNC4=O)cc1 + COC1C(OC(N)=O)C(O)C(Oc2ccc3c(O)c(NC(=O)c4ccc(O)c(CC=C(C)C)c4)c(=O)oc3c2C)OC1(C)C", "922993-354-T-J3-PDC complex spheroid viability", 102]
]}

stdin: Report viability, T/C for C#Cc1c(F)ccc2cc(O)cc(-c3ncc4c(N5CC6CCC(C5)N6)nc(OCC56CCCN5CC(F)C6)nc4c3F)c12 (stereo unspecified) + Nc1ccc(C#CCN(C(=O)Cc2ncc(C(F)(F)F)cc2C(F)(F)F)c2ccc(F)cc2)nn1 please.
stdout: 109

stdin: Report viability, T/C for C=CC(=O)N1CCN(c2nc(=O)n(-c3c(C)ccnc3C(C)C)c3nc(-c4c(O)cccc4F)c(F)cc23)C(C)C1 (stereo unspecified) + Nc1ccc(C#CCN(C(=O)Cc2ncc(C(F)(F)F)cc2C(F)(F)F)c2ccc(F)cc2)nn1 please.
stdout: 107

stdin: Report viability, T/C for COc1cccc2c1C(=O)c1c(O)c3c(c(O)c1C2=O)CC(O)(C(=O)CO)CC3OC1CC(N)C(O)C(C)O1 (stereo unspecified) + COC1C(OC(N)=O)C(O)C(Oc2ccc3c(O)c(NC(=O)c4ccc(O)c(CC=C(C)C)c4)c(=O)oc3c2C)OC1(C)C please.
stdout: 105

stdin: Report viability, T/C for Cn1ncnc1[C@H]1c2n[nH]c(=O)c3cc(F)cc(c23)N[C@@H]1c1ccc(F)cc1 + Cc1cccc(N(C)C(=O)C2C(O)CCN2c2nc(C)cc(C(F)(F)F)c2C#N)c1 please.
stdout: 91.2

stdin: Report viability, T/C for COc1ccc([C@@H](O)c2cc(-c3ncnc4cc(N5CCOCC5)ccc34)c(F)cc2Cl)nn1 + Nc1ccc(C#CCN(C(=O)Cc2ncc(C(F)(F)F)cc2C(F)(F)F)c2ccc(F)cc2)nn1 please.
stdout: 106

====

- Test system: 922993-354-T-J3-PDC complex spheroid viability
- assayProtocol: Anticancer human tumor 922993-354-T-J3-PDC cell line growth inhibition [POLQ]; active = viability on the fitted dose curve at most 10% of control; inactive = the rest;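 note: spheroids exposed to the agents for one week; 100% = DMSO vehicle control wells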
- testSettings: second compound 10 µM; first compound 10 µM
Output constraint: value belongs to true (1) (active), false (0) (inactive)

Here are 4 compounds together with their reported answers.
{"columns": ["compound", "cat"],
 "data": [
  ["CC1COCCN1c1cc(C2(S(C)(=N)=O)CC2)nc(-c2ccnc3[nH]ccc23)n1 (stereo not given) + Cc1cccc(N(C)C(=O)C2C(O)CCN2c2nc(C)cc(C(F)(F)F)c2C#N)c1", "false (0)"],
  ["CCCS(=O)(=O)Nc1ccc(F)c(C(=O)c2c[nH]c3ncc(-c4ccc(Cl)cc4)cc23)c1F + Nc1ccc(C#CCN(C(=O)Cc2ncc(C(F)(F)F)cc2C(F)(F)F)c2ccc(F)cc2)nn1", "false (0)"],
  ["C=CC(=O)N1CCN(c2nc(=O)n(-c3c(C)ccnc3C(C)C)c3nc(-c4c(O)cccc4F)c(F)cc23)C(C)C1 (stereo not given) + Nc1ccc(C#CCN(C(=O)Cc2ncc(C(F)(F)F)cc2C(F)(F)F)c2ccc(F)cc2)nn1", "false (0)"],
  ["COc1cc2cc(C(=O)CCC(=O)O)sc2cc1OC + COC1C(OC(N)=O)C(O)C(Oc2ccc3c(O)c(NC(=O)c4ccc(O)c(CC=C(C)C)c4)c(=O)oc3c2C)OC1(C)C", "false (0)"]
]}

# evaluate next
stdin: What was the test verdict on Nc1ccn(C2OC(CO)C(O)C2(F)F)c(=O)n1 (stereo not given) + COC1C(OC(N)=O)C(O)C(Oc2ccc3c(O)c(NC(=O)c4ccc(O)c(CC=C(C)C)c4)c(=O)oc3c2C)OC1(C)C ?
stdout: true (1)

====

- Tested on: 922993-354-T-J3-PDC complex spheroid viability
- assayProtocol: Anticancer human tumor 922993-354-T-J3-PDC cell line growth inhibition [POLQ];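 note: spheroids exposed to the agents for one week; 100% = DMSO vehicle control wells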
- testSettings: second compound 1 µM; first compound 0.01 µM; hits give low values
Below: a set of entries, each annotated with reported viability, T/C.
The response must be a number in % with no trailing unit.

stdin: Report viability, T/C for Cn1ncnc1[C@H]1c2n[nH]c(=O)c3cc(F)cc(c23)N[C@@H]1c1ccc(F)cc1 + COC1C(OC(N)=O)C(O)C(Oc2ccc3c(O)c(NC(=O)c4ccc(O)c(CC=C(C)C)c4)c(=O)oc3c2C)OC1(C)C please.
stdout: 105
